EC50 for assorted binders
testedSystem: T1, ITGA2-His (human, UniProt P17301 30-1132, limits assumed)
T1 construct: also called ITGA2 protein; not shown: His tag
T1 sequence (looked up): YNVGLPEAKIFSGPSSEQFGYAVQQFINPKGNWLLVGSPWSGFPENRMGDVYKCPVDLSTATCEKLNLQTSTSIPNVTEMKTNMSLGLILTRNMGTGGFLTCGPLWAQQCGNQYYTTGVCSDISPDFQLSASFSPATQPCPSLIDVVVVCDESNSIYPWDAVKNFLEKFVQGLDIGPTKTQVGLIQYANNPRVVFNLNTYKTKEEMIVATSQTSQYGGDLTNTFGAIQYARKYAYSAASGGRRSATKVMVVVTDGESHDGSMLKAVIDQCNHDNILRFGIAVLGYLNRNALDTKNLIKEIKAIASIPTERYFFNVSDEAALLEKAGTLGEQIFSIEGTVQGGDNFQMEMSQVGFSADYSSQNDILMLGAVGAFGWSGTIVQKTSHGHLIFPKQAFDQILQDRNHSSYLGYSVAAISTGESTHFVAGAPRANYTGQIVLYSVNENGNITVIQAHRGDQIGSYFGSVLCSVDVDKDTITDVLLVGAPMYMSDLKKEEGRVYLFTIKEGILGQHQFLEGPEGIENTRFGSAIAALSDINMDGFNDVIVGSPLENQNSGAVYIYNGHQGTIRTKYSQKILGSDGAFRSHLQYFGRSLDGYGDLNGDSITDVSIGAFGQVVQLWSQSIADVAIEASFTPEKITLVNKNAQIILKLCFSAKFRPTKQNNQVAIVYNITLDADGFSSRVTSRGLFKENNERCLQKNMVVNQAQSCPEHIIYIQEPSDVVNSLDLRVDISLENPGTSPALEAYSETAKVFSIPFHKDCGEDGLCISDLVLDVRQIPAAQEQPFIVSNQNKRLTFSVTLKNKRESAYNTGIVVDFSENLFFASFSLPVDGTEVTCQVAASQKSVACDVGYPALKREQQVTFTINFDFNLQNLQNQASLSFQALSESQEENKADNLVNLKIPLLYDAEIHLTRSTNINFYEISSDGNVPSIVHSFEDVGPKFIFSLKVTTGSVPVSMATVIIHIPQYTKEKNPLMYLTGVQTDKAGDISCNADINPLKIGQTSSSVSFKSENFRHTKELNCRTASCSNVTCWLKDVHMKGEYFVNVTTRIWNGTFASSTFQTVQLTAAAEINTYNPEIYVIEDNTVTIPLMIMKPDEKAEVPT
experimentNotes: ELISA, plate coated with 2 ug/mL ITGA2-His, anti-human IgG-Fc-HRP detection
readoutType: EC50 (nM)

binder	readoutType	resultUnit	recordedMeasurement
Humanized antibody FS002-A5 (antibody, human IgG1, kappa, V domains shown, IgG1 heavy chain, kappa light chain) VH: QVQLQDSGPGLVKPSQTLSLTCTVSGGSISSGGYYWSWIRQHPGKGLEWIGYIYYSGSTYYNPSLKSRVTISVDTSKNQFSLKLSSVTAADTAVYYCARVPVPLVGAFDIWGQGTMVTVSS VL: EIVLTQSPATLSLSPGERATLSCRASQSVSSNLGWYQQKPGQAPSLLIYGASNRATGIPARFSGSGSGTDFTLTISSLEPEDFAVYYCQQRDTWPLTFGGGTKVEIKR	EC50	nM	0.032
Humanized antibody FS002-A10 (antibody, human IgG1, kappa, V domains shown, IgG1 heavy chain, kappa light chain) VH: QVQLQQSGPGLVKPSQTLSLTCAISGDSVSSDSAAWNWIRQSPSRGLEWLGRTYYRSKWYNDYAVSVKSRITINPDTSKNQFSLQLNSVTSDDTAVYYCARGSWAAPWLWGQGTLVTVSS VL: NIQLTQSPPFLSASVGDRVTITCRASQDISSFLAWYQQKPGKAPNLLIHAATTLQSGVPSRFSGSGSGTEFTLTISSLRPEDFATYYCQQLHTYPITFGQGTRLEIKR	EC50	nM	0.021
Humanized antibody FS002-C58 (antibody, human IgG1, kappa, V domains shown, IgG1 heavy chain, kappa light chain) VH: EVQLLESGGGVVQPGRSLRLSCAASGFTFSSYAMHWVRQAPGKGLEWVAVISYDGSNKYYADSVKGRFTISRDNSKNTLYLQMNSLRAEDTAVYYCARGKYNWFDPWGQGTLVTVSS VL: EIVLTQSPATLSLSPGERATLSCRASQSVYSSLAWYQQKPGQAPKLLIYDASNRATGVPARFSGSGSGTDFTLTISSLEPEDFALYYCQHRQHWPLTFGGGTKVEIKR	EC50	nM	0.279
